# credit: patent US20150376269A1

Biological target: T1, serum resistance-associated protein (SRA) from Trypanosoma brucei rhodesiense, recombinant SRA (SEQ ID NO: … (Trypanosoma brucei rhodesiense, UniProt O96637 31-274))
T1 construct: also called SRA protein
T1 sequence: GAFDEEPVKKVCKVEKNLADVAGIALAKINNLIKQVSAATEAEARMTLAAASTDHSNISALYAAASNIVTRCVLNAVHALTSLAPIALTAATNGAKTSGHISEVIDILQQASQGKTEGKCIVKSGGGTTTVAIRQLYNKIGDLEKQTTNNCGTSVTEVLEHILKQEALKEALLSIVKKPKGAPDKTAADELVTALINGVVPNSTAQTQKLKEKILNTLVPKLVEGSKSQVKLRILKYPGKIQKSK
Experiment: SPR, mAb captured, 25C, pH 7.4
Record form. Attribute: t ½. Fill in for each entry.
Give bare numbers, in min.

H2aM10201N (antibody, V domains shown, Chimeric antibody, human variable domains and mouse constant domains (mouse Fc, prefix H2aM); also called H2M10201N) VH: QVQLLESGGGVVQPGKSLRLSCVASGSIFSIYGMNWVRQAPGKGLEWVASVSSDGSAKFYADSVKGRFTISRDNSNDTLFLQMTSLRAEDTAVYYCAKTLWNYLFDSWGQGTLVTVSS VL: ENVLTQSPDTLSLSPGERATLSCRASQSITSNYLAWYQQKPGQTPRLLISFTSRRATGIPDRFSGSGSGTVFTLTISRLEPEDFAVYYCQQYGTSLTFGGGAKVEIR: 74

Moving on to the next binder.
Query block: Would you kindly share the measured t ½ for H1H10064P (antibody, V domains shown, Fully human antibody with human IgG1 Fc (prefix H1H)) VH: QVQLVQSGAEVKKPGSSVKVSCKASGGSFSSNVFSWVRQAPGQGLEWMGGIIPIFGSANYAQKFQGRVTITTDESTTTAYMELSSLRSEDTAVYYCAIGGTGPSGYNWNYGAFYIWGQGTMVTVSS VL: DIQMTQSPSSLSASVGDRVTITCRASQGIRNDLGWYQQKPGIAPKRLIYAASSLQSGVPSRFSGSGSGTEFTLTISSLQPEDFATYYCLQHNSYPYTFGQGTKLEIK ?
Result block: 13
